biological target: recombinant soluble homotrimeric HA of A/Wisconsin/67/05 (H3N2) (Influenza A virus A/Wisconsin/67/2005 (H3N2)); assay: HA microarray, BCC supernatant; conditions: remark: other sources report otherwise
Quantity Kind: Trimeric HA Binding RLU
Express the reported value numerically, then name its unit.

# example entries with known answers
TCN-526 (5084_C17) (antibody, V domains shown) VH: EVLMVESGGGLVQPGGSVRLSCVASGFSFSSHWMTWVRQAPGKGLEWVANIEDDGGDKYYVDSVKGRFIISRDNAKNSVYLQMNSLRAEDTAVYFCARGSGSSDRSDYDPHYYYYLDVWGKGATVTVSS VL: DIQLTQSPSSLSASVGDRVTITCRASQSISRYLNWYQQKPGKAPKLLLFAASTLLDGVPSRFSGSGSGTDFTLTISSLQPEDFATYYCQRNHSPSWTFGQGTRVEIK: 49300 RLU
TCN-555 (5246_L16) (antibody, V domains shown) VH: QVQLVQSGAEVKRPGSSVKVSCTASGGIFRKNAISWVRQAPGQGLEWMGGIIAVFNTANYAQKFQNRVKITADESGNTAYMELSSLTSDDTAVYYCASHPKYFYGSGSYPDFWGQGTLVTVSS VL: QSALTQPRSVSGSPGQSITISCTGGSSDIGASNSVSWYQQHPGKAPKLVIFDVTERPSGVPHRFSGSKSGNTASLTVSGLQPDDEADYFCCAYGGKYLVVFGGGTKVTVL: 9800 RLU

We next turn to a different binder, shown below.
Item: TCN-539 (5056_A08) (antibody, V domains shown) VH: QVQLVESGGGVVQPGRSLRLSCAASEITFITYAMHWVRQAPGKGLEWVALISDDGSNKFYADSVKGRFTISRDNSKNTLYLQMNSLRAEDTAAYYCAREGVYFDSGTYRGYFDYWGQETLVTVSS VL: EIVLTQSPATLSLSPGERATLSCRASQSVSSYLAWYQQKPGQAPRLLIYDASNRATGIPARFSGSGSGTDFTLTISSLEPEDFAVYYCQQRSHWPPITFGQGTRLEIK | Trimeric HA Binding RLU: 715 RLU

Every entry's value here was drawn from patent US20150104459A1.
